target: human IL-6 (human, UniProt P05231 30-212); assay: SPR Biacore, supernatant, Protein A capture, 37 C
Sequence (P05231 30-212 limits assumed): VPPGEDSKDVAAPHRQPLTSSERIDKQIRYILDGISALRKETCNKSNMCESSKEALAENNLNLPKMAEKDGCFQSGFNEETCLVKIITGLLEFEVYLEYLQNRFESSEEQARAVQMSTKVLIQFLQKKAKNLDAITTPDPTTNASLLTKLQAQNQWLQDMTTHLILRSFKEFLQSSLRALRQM
Catalogue of Kd readings, one per entry.
Note: unit nM is implicit; provide only the numeric part.

- Binder: "Anti-IL-6 antibody, heavy chain S35H, G66D, L100V / light chain M32L, M50D, N52S, M88Q (antibody, IgG1, V domains shown, IgG1; variable domains only; VL is variant III) VH: EVQLVESGGGLVQPGGSLRLSCAASGFTFSPFAMHWVRQAPGKGLEWVAKISPGGSWTYYSDTVTDRFTFSLDTSKSTAYLQMNSLRAEDTAVYYCARQVWGYYALDIWGQGTLVTVSS VL: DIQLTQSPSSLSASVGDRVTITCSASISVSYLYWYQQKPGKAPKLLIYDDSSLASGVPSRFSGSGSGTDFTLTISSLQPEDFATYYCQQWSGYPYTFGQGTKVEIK"
  Measured property: "Kd"
  Measurement units: "nM"
  Data value: 0.184

Data request: Given the binder Anti-IL-6 antibody, heavy chain S35H, G66D, Q99K / light chain WT (antibody, IgG1, V domains shown, IgG1; variable domains only) VH: EVQLVESGGGLVQPGGSLRLSCAASGFTFSPFAMHWVRQAPGKGLEWVAKISPGGSWTYYSDTVTDRFTFSLDTSKSTAYLQMNSLRAEDTAVYYCARKLWGYYALDIWGQGTLVTVSS VL: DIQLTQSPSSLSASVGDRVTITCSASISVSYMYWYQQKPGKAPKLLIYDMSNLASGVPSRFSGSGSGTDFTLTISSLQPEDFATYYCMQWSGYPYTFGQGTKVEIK , write its reported Kd.
Data returned: 15.1

Data request: Given the binder Anti-IL-6 antibody, heavy chain S35H, G66D, Q99H / light chain M32L, M50D, N52S, M88Q (antibody, IgG1, V domains shown, IgG1; variable domains only; VL is variant III) VH: EVQLVESGGGLVQPGGSLRLSCAASGFTFSPFAMHWVRQAPGKGLEWVAKISPGGSWTYYSDTVTDRFTFSLDTSKSTAYLQMNSLRAEDTAVYYCARHLWGYYALDIWGQGTLVTVSS VL: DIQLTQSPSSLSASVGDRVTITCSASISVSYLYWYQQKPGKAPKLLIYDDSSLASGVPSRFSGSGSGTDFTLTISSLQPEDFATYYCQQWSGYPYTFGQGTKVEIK , write its reported Kd.
Data returned: 5.52
